System: HCC1569
Experiment: cell number relative to DMSO (% of DMSO); higher = more cells (less growth inhibition / toxicity)
Conditions: concentration: 10 µM; 24 h
If the reported cell number equals or exceeds 100, assign YES. If not, assign NO.

[[record]]
molecule = "NC(Cc1ccc(N(CCCl)CCCl)cc1)C(=O)O (centres undefined)"
assigned_category = "NO"

[[record]]
molecule = "C=C(C)C1C2OC(=O)C1C1(O)CC3OC34C(=O)OC2C14C (centres undefined)"
assigned_category = "YES"

[[record]]
molecule = "CN(C)C1C(=O)C(C(N)=O)=C(O)C2(O)C(=O)C3=C(O)c4c(O)cccc4C(C)(O)C3CC12 (centres undefined)"
assigned_category = "YES"


[Q] Could you verify whether the entry `Cc1cccc(C)c1NC1=NCCCS1` shows cell number of no less than 100?
[A] YES

[Q] Same read-out for CC1CCC2(NC1)OC1CC3C4CCC5CC(O)CCC5(C)C4CCC3(C)C1C2C (centres undefined) ?
[A] YES

###

Tested on: TDF
Assay: H1.0 immunofluorescence intensity relative to DMSO (% of DMSO); higher = stronger H1.0 induction, active = 120 or more
Conditions: concentration: 10 µM; 24 h
Hello, when you answer, please use one of the following outcomes: t = active, f = inactive

[[record]]
molecule = "COc1ccc(C(=O)N2CCCC2=O)cc1 [Aniracetam]"
assigned_category = "f"

[[record]]
molecule = "CCn1cnc2c(Nc3cccc(Cl)c3)nc(NC3CCCCC3N)nc21 (stereo not drawn)"
assigned_category = "t"

[[record]]
molecule = "CCC(C(=O)O)C1CCC(C)C(C(C)C(O)C(C)C(=O)C(CC)C2OC3(C=CC(O)C4(CCC(C)(C5CCC(O)(CC)C(C)O5)O4)O3)C(C)CC2C)O1 (stereo not drawn) [Salinomycin]"
assigned_category = "f"

[[record]]
molecule = "C[Se]CC(N)C(=O)O.Cl (stereo not drawn) [Se-(methyl)selenocysteine hydrochloride]"
assigned_category = "f"

[[record]]
molecule = "CCN(CCCl)Cc1ccccc1Br.Cl [DSP-4 hydrochloride]"
assigned_category = "f"

[[record]]
molecule = "CC[N+](CC)(CC)CC.[Cl-] [Tetraethylammonium chloride]"
assigned_category = "f"


[Q] Test call, this molecule: NC(=NN=Cc1ccc(-c2cccc([N+](=O)[O-])c2)o1)N[N+](=O)[O-] [ERK Inhibitor III]
[A] f

[Q] Same read-out for CC(=O)OC1C(=O)C2(C)C(O)CC3OCC3(OC(C)=O)C2C(OC(=O)c2ccccc2)C2(O)CC(O)C(C)=C1C2(C)C (stereo not drawn) [Baccatin III] ?
[A] f

###

What cell number was measured for each of the following?
System: HCC1569
Assay: cell number relative to DMSO (% of DMSO); higher = more cells (less growth inhibition / toxicity)
Settings: concentration: 10 µM; 24 h
Answers are plain numbers.

Some entries whose results are on file:
[[record]]
compound = "Cc1c2ccncc2c(C)c2c1[nH]c1ccccc12 [Ellipticine]"
target_under_test = "HCC1569"
observed = 69.4

[[record]]
compound = "CC=C(C)C(=O)OC1CCC2(C)C3CCC4C5(O)CC(O)C6(O)C(CN7CC(C)CCC7C6(C)O)C5(O)CC42OC13O (stereo not drawn) [Cevadine]"
target_under_test = "HCC1569"
observed = 99.9

[[record]]
compound = "CC(N)C(=O)OC(C)(C)Cc1ccc(Cl)cc1.Cl (stereo not drawn) [Alaproclate hydrochloride]"
target_under_test = "HCC1569"
observed = 102


Provide cell number values for the following items, in order.
1. COc1ccc2c3c1OC1C(=O)CCC4(O)C(C2)N(CC2CC2)CCC314.Cl (single isomer, unassigned; (-)) [(-)-3-Methoxynaltrexone hydrochloride]
2. CCC(C)CC(C)N (stereo not drawn) [1,3-dimethylpentylamine]
3. CCC1(c2ccc(N)cc2)CCC(=O)NC1=O (racemic) [DL-Aminoglutethimide]
4. CCCN1CCCC(c2cccc(O)c2)C1.Cl (stereo not drawn) [R(+)-3PPP hydrochloride]
5. CP(=O)(O)CCCN.Cl

[A]
[104, 103, 109, 104, 102]

###

Tested on: TDF
Assay: H1.0 immunofluorescence intensity relative to DMSO (% of DMSO); higher = stronger H1.0 induction, active = 120 or more
Conditions: concentration: 10 µM; 24 h
What H1.0 immunofluorescence intensity was measured for each of the following?
Give bare numbers.

Some entries whose results are on file:
[[record]]
compound = "C=CCN1CCC23c4c5ccc(O)c4OC2C(=NN=C2CCC4(O)C6Cc7ccc(O)c8c7C4(CCN6CC=C)C2O8)CCC3(O)C1C5 (stereo not given)"
observed = 105

[[record]]
compound = "C[N+]1(C)C2CC(OC(=O)C(CO)c3ccccc3)CC1C1OC12.O=[N+]([O-])[O-] (single isomer, unassigned; (-)) [(-)-Scopolamine methyl nitrate]"
observed = 93.1

[[record]]
compound = "CCN1CC2(C)CCC(OC)C34C5CC6CCC(O)(C5C(=O)O6)C(C(O)C23)C14 (stereo not given)"
observed = 96.1

[[record]]
compound = "CC(NC(C)(C)C)C(=O)c1cccc(Cl)c1 (stereo not given)"
observed = 97.2

[[record]]
compound = "Nc1ncnc2c1ncn2C1OC(COP(=O)(O)CP(=O)(O)OP(=O)([O-])[O-])C(O)C1O.[Li+].[Li+] (stereo not drawn) [alpha,beta-Methylene adenosine 5'-triphosphate dilithium]"
observed = 87.9


Provide H1.0 immunofluorescence intensity values for the following items, in order.
1. CCC=CCC(C=CC=CCC=CCC=CCCCC(=O)O)OO (stereo not given)
2. COc1ccc(C(CN(C)C)C2(O)CCCCC2)cc1 (stereo not given)
3. C#C[C@]1(O)CC[C@H]2[C@@H]3CC[C@H]4Cc5nc6nc7ccccc7n6cc5C[C@]4(C)[C@H]3CC[C@@]21C

[A]
[92.7, 106, 99]

###

What cell number was measured for each of the following?
Tested on: TDF
Assay: cell number relative to DMSO (% of DMSO); higher = more cells (less growth inhibition / toxicity)
Details: concentration: 10 µM; 24 h
Give bare numbers.

[[record]]
compound = "C[N+]1(C)CCc2cc3c(cc2C1C1OC(=O)c2c1ccc1c2OCO1)OCO3.[Br-] (single isomer, unassigned; (-)) [(-)-Bicuculline methbromide, 1(S), 9(R)]"
target_under_test = "TDF"
observed = 104

[[record]]
compound = "CCC(C)C1OC2(C=CC1C)CC1CC(CC=C(C)C(OC3CC(OC)C(OC4CC(OC)C(O)C(C)O4)C(C)O3)C(C)C=CC=C3COC4C(O)C(C)=CC(C(=O)O1)C34O)O2 (configuration not stated)"
target_under_test = "TDF"
observed = 94.4

[[record]]
compound = "O=c1c2ccccc2[se]n1-c1ccccc1"
target_under_test = "TDF"
observed = 97.7

[[record]]
compound = "CCCN(CCC)C(=O)Cc1c(-c2ccc(Cl)cc2)nc2c(Cl)cc(Cl)cn12"
target_under_test = "TDF"
observed = 105

[[record]]
compound = "COc1ccc2c(c1OC)C(=O)OC2C1c2cc3c(cc2CCN1C)OCO3 (configuration not stated)"
target_under_test = "TDF"
observed = 97.5

[[record]]
compound = "C[N+]1(C)C2CCC1CC(OC(=O)C(CO)c1ccccc1)C2.[Br-] (configuration not stated) [Atropine methyl bromide]"
target_under_test = "TDF"
observed = 105


Now look at this one.
[Q] Which cell number value belongs to `CN1[C@@H]2CC[C@H]1C[C@@H](OC(=O)[C@H](CO)c1ccccc1)C2` ?
[A] 117

###

What H1.0 immunofluorescence intensity was measured for each of the following?
System: HCC1569
Test: H1.0 immunofluorescence intensity relative to DMSO (% of DMSO); higher = stronger H1.0 induction, active = 140 or more
Settings: concentration: 10 µM; 24 h
Give bare numbers.

[[record]]
compound = "Cl.O=C(OC1CCN(CCCl)CC1)C(c1ccccc1)c1ccccc1 [4-Diphenylacetoxy-N-(2-chloroethyl)piperidine hydrochloride]"
target_under_test = "HCC1569"
measurement_type = "H1.0 immunofluorescence intensity"
observed = 87.6

[[record]]
compound = "CN(C)C(=O)Oc1cccc([N+](C)(C)C)c1"
target_under_test = "HCC1569"
measurement_type = "H1.0 immunofluorescence intensity"
observed = 101

[[record]]
compound = "C=CC1CN2CCC1CC2C(O)c1ccnc2ccccc12 (single isomer, unassigned; (+)) [(+)-Cinchonine]"
target_under_test = "HCC1569"
measurement_type = "H1.0 immunofluorescence intensity"
observed = 91.1

[[record]]
compound = "Br.C=CCN1CCc2cccc3c2C1Cc1ccc(O)c(O)c1-3 (stereo not drawn) [R(-)-N-Allylnorapomorphine hydrobromide]"
target_under_test = "HCC1569"
measurement_type = "H1.0 immunofluorescence intensity"
observed = 110

[[record]]
compound = "CCCCCCCCCCCCCCCCOCC(COP(=O)([O-])OCC[N+](C)(C)C)OC(C)=O (stereo not drawn) [Enantio-PAF C16]"
target_under_test = "HCC1569"
measurement_type = "H1.0 immunofluorescence intensity"
observed = 94

[[record]]
compound = "Br.CCCN1CCc2cc(O)cc3c2C1Cc1ccc(O)c(O)c1-3 (stereo not drawn) [R(-)-2,10,11-Trihydroxy-N-propylnoraporphine hydrobromide]"
target_under_test = "HCC1569"
measurement_type = "H1.0 immunofluorescence intensity"
observed = 100

[[record]]
compound = "NC(CCCCCP(=O)(O)O)C(=O)O (racemic)"
target_under_test = "HCC1569"
measurement_type = "H1.0 immunofluorescence intensity"
observed = 98.4


[Q] Which H1.0 immunofluorescence intensity value belongs to `CCCN(CCC)C(=O)Cc1c(-c2ccc(Cl)cc2)nc2c(Cl)cc(Cl)cn12` ?
[A] 100
